System: DU-145 prostate
Method description: NCI-60 one-dose screen, 48 h (100 = growth as untreated, 0 = no growth, -100 = all killed)
Condition set: 10 µM unless noted
Compounds without any hit were thinned out: in the full panel of roughly 83,000, 20% have a hit.
Experimental endpoint: growth (%)
Numbers only here, please. The scale is %.

Consider the worked cases shown below.
Molecule: COC(=O)C1C(O)C(C)C(O)C(C)C=C(C)C2=C3C(=C(C)C(=O)c4c(O)c(c(C)c(OC(C)=O)c43)NC(=O)C(C)=C/C=C\C(C)C(O)C(C)C1O)OCO2 (stereo unspecified)
growth (%): 115
--
Molecule: CS(=O)(=O)OC1CC(n2ccc(=O)[nH]c2=O)OC1COC(c1ccccc1)(c1ccccc1)c1ccccc1 (stereo unspecified)
growth (%): 99.8
--
Molecule: Cc1cc(O)c(C(C)C)cc1Cl
growth (%): 101
--
Molecule: CCCCCCCCCCCCCCCCCCOCC(COP(=O)([O-])OCC[N+](C)(C)C)OC (stereo unspecified)
growth (%): 129
--
Molecule: O=C1NC(=O)c2cc([N+](=O)[O-])ccc21
growth (%): 112
--
Molecule: NC1=C(Cl)C(=O)c2ccccc2C1=O
growth (%): 27.1
--
Molecule: Clc1ccc(/C=C/c2ccccn2)c(Cl)c1
growth (%): 116
--
Molecule: O=C(/C=C/c1cccnc1)c1ccccc1
growth (%): 105

I have this molecule here, OCC(O)C(O)C(O)C(/C=N/Nc1ccccc1)=N/Nc1ccccc1 (stereo unspecified) , and I need its recorded growth.
89.1

Sample `O=C(O)COc1ccc(OCC(=O)O)cc1` — what was its growth?
5.6

Which measured growth value corresponds to `CC(=O)Nc1cc(C)ccc1C` ?
112

----------
Tested on: NCI/ADR-RES ovarian
Method description: NCI-60 one-dose screen, 48 h (100 = growth as untreated, 0 = no growth, -100 = all killed)
Condition set: 10 µM
The panel holds about 83,000 compounds, 20% with a hit somewhere; the sample as a whole holds those more often.
Experimental endpoint: growth (%)
Only the number, expressed in %, is required.

Below: 8 compounds and their reported growth.
Compound: CC[N+](CC)=c1ccc2nc3c(cc(N)c4ccccc43)oc-2c1
Uom: %
growth: -62.2
//
Compound: CCN1/C(=C/C=C/C=C/c2sc3ccccc3[n+]2CC)Sc2ccccc21
Uom: %
growth: 55.9
//
Compound: CC1=CC(C)=Nc2ccc(Cl)cc2N1
Uom: %
growth: 102
//
Compound: OC(CN1CCCC2CCCCC21)c1cc2ccccc2c2ccccc12 (centres undefined)
Uom: %
growth: 17.4
//
Compound: CCCCCCCCCCCCCCCCCCOCC(COP(=O)([O-])OCC[N+](C)(C)C)OC (centres undefined)
Uom: %
growth: 107
//
Compound: NC1=C(Cl)C(=O)c2ccccc2C1=O
Uom: %
growth: 80.4
//
Compound: Clc1cc(Cl)c(Cl)nn1
Uom: %
growth: 107
//
Compound: COc1cccc2c1C(=O)c1c(O)c3c(c(O)c1C2=O)C[C@@](O)(C(=O)CO)C[C@@H]3OC1CC(N)C(O)C(C)O1 (some centres undefined)
Uom: %
growth: 4.94

Let's switch to this compound now.
For the compound shown here, CO[C@H](C(=O)[C@@H](O)[C@@H](C)O)[C@@H]1Cc2cc3cc(OC4CC(OC5CC(O)C(O)C(C)O5)C(O)C(C)O4)c(C)c(O)c3c(O)c2C(=O)[C@H]1OC1CC(OC2CC(OC3CC(C)(O)C(O)C(C)O3)C(O)C(C)O2)C(O)C(C)O1 (some centres undefined) , give the reported growth.
44.4

Source of measurements: PubChem BioAssay (NCI)
